Target: TDP1 (Homo sapiens)
Sequence (Q9NUW8 whole entry): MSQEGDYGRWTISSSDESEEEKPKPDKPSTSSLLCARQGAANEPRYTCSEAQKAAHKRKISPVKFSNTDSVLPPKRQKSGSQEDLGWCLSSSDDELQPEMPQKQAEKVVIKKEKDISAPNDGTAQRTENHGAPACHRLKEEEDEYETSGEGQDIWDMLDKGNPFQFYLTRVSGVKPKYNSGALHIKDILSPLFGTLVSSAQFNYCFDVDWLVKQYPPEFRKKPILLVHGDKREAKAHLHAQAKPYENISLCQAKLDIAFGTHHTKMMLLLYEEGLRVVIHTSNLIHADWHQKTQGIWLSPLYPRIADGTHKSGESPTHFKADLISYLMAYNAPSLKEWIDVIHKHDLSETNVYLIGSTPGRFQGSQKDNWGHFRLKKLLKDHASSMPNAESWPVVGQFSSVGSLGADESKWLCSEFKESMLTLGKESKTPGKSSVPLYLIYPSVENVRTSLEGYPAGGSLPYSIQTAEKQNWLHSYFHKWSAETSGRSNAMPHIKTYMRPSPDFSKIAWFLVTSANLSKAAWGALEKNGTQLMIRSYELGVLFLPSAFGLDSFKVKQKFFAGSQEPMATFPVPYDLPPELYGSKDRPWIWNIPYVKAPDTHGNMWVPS
pIC50: −log10 of the molar value.
Entries annotated with measured pIC50

[
  {
    "COMPOUND": "CCCCCC1OC(OC)c2c3c(cc(O)c2C1OC)C=CC(C)(C)O3 (racemic) [(±)-1, (±)-Eurotiumide G]",
    "pIC50": "< 4.00"
  },
  {
    "COMPOUND": "CCCCC[C@H]1O[C@H](OC)c2c3c(cc(O)c2[C@H]1OC)C[C@H](OC)C(C)(C)O3 [(+)-4, Aspergiletal B]",
    "pIC50": "< 4.00"
  },
  {
    "COMPOUND": "CCCCC[C@H]1O[C@H](OC)c2c3c(cc(O)c2[C@H]1OC)C=CC(C)(C)O3 [(+)-1, eurotiumide G]",
    "pIC50": "< 4.00"
  },
  {
    "COMPOUND": "CCCCC[C@H]1O[C@H](OC)c2c3c(cc(O)c2[C@@H]1OC)C=CC(C)(C)O3 [(+)-2, eurotiumide F]",
    "pIC50": "< 4.00"
  },
  {
    "COMPOUND": "CCCCC[C@@H]1O[C@@H](OC)c2c3c(cc(O)c2[C@@H]1OC)[C@@H](O)[C@@H](O)C(C)(C)O3 [(−)-6, Aspergiletal D]",
    "pIC50": 4.43
  },
  {
    "COMPOUND": "CCCCC[C@H]1O[C@H](OC)c2c3c(cc(O)c2[C@H]1OC)C=C(OC)C(C)(C)O3 [(+)-3, Aspergiletal A]",
    "pIC50": "< 4.00"
  },
  {
    "COMPOUND": "CCCCC[C@H]1O[C@H](OC)c2c3c(cc(O)c2[C@H]1OC)[C@H](O)[C@H](O)C(C)(C)O3 [(+)-6, Aspergiletal D]",
    "pIC50": 4.56
  },
  {
    "COMPOUND": "CCCCCC1OC(OC)c2c3c(cc(O)c2C1OC)C=CC(C)(C)O3 (racemic) [(±)-2, (±)-Eurotiumide F]",
    "pIC50": 4.24
  },
  {
    "COMPOUND": "CCCCC[C@@H]1O[C@@H](OC)c2c3c(cc(O)c2[C@@H]1OC)C=C(OC)C(C)(C)O3 [(−)-3, Aspergiletal A]",
    "pIC50": "< 4.00"
  },
  {
    "COMPOUND": "CCCCC[C@@H]1O[C@@H](OC)c2c3c(cc(O)c2[C@@H]1OC)C[C@@H](O)C(C)(C)O3 [(−)-5, Aspergiletal C]",
    "pIC50": "< 4.00"
  },
  {
    "COMPOUND": "CCCCCC1OC(OC)c2c3c(cc(O)c2C1OC)CC(O)C(C)(C)O3 (racemic) [(±)-5, (±)-Aspergiletal C]",
    "pIC50": "< 4.00"
  },
  {
    "COMPOUND": "CCCCCC1OC(OC)c2c3c(cc(O)c2C1OC)C(O)C(O)C(C)(C)O3 (racemic) [(±)-6, (±)-Aspergiletal D]",
    "pIC50": 5.19
  },
  {
    "COMPOUND": "CCCCC[C@@H]1O[C@@H](OC)c2c3c(cc(O)c2[C@H]1OC)C=CC(C)(C)O3 [(−)-2, eurotiumide F]",
    "pIC50": "< 4.00"
  },
  {
    "COMPOUND": "CCCCC[C@@H]1O[C@@H](OC)c2c3c(cc(O)c2[C@@H]1OC)C[C@@H](OC)C(C)(C)O3 [(−)-4, Aspergiletal B]",
    "pIC50": "< 4.00"
  }
]
